In this section, each of the binders is paired with its reported Fold change to WT.
Target: T1, human PD-L1 (full-length, expressed on CHO cells) (human, UniProt Q9NZQ7 19-290)
T1 construct: also called huPD-L1; CD274
T1 sequence (Q9NZQ7 19-290): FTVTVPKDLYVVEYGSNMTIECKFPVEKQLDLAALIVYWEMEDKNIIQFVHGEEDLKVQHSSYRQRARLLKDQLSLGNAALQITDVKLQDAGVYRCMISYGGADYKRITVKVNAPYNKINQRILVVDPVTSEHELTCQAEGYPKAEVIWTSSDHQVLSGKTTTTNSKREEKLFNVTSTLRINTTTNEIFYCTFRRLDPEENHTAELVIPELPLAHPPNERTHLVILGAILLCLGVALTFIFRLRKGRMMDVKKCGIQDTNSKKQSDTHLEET
Test: flow cytometry MFI at 33.3 nM relative to WT CD80 ECD-Fc (R&D), CHO/huPD-L1 cells
Write your answer as a measured quantity: the number, then the unit.

Examples with answers:
{"binder": "variant CD80 IgV-Fc A26E/Q33R/E35D/M47L/L85Q/K86E (Fc fusion, not shown: a dimerising Fc or GST, Fc fusions are described in general as dimers) VIHVTKEVKEVATLSCGHNVSVEELEQTRIYWRKDKKMVLTMMSGDLNIWPEYKNRTIFDITNNLSIVILALRPSDEGTYECVVQEYEKDAFKREHLAEVTLSVKAD", "readout": "Fold change to WT", "result-value": "9.56 fold"}
{"binder": "variant CD80 IgV-Fc Q33L/E35D/T41S/M43I (Fc fusion, not shown: a dimerising Fc or GST) VIHVTKEVKEVATLSCGHNVSVEELAQTRIYWLKDKKMVLSMISGDMNIWPEYKNRTIFDITNNLSIVILALRPSDEGTYECVVLKYEKDAFKREHLAEVTLSVKAD", "readout": "Fold change to WT", "result-value": "5.66 fold"}
{"binder": "variant CD80 IgV-Fc H18Y/V20A/Q33L/E35D/M47V/Y53F (Fc fusion, not shown: a dimerising Fc or GST) VIHVTKEVKEVATLSCGYNASVEELAQTRIYWLKDKKMVLTMMSGDVNIWPEFKNRTIFDITNNLSIVILALRPSDEGTYECVVLKYEKDAFKREHLAEVTLSVKAD", "readout": "Fold change to WT", "result-value": "15.2 fold"}
{"binder": "variant CD80 IgV-Fc Q27H/Q33L/E35D/M47V/N55D/L85Q/K89N (Fc fusion, not shown: a dimerising Fc or GST) VIHVTKEVKEVATLSCGHNVSVEELAHTRIYWLKDKKMVLTMMSGDVNIWPEYKDRTIFDITNNLSIVILALRPSDEGTYECVVQKYENDAFKREHLAEVTLSVKAD", "readout": "Fold change to WT", "result-value": "1.86 fold"}
{"binder": "variant CD80 IgV-Fc H18Y/Q33L/E35D/M47I (Fc fusion, not shown: a dimerising Fc or GST) VIHVTKEVKEVATLSCGYNVSVEELAQTRIYWLKDKKMVLTMMSGDINIWPEYKNRTIFDITNNLSIVILALRPSDEGTYECVVLKYEKDAFKREHLAEVTLSVKAD", "readout": "Fold change to WT", "result-value": "6.02 fold"}
{"binder": "variant CD80 IgV-Fc V22A/E23D/Q33L/E35D/M47V (Fc fusion, not shown: a dimerising Fc or GST) VIHVTKEVKEVATLSCGHNVSADELAQTRIYWLKDKKMVLTMMSGDVNIWPEYKNRTIFDITNNLSIVILALRPSDEGTYECVVLKYEKDAFKREHLAEVTLSVKAD", "readout": "Fold change to WT", "result-value": "9.51 fold"}
{"binder": "variant CD80 IgV-Fc Q33L/E35D/T41S/M47V (Fc fusion, not shown: a dimerising Fc or GST) VIHVTKEVKEVATLSCGHNVSVEELAQTRIYWLKDKKMVLSMMSGDVNIWPEYKNRTIFDITNNLSIVILALRPSDEGTYECVVLKYEKDAFKREHLAEVTLSVKAD", "readout": "Fold change to WT", "result-value": "5.52 fold"}
{"binder": "variant CD80 IgV-Fc Y31S/E35D/M47L/T79L/E88G (Fc fusion, not shown: a dimerising Fc or GST) VIHVTKEVKEVATLSCGHNVSVEELAQTRISWQKDKKMVLTMMSGDLNIWPEYKNRTIFDITNNLSIVILALRPSDEGLYECVVLKYGKDAFKREHLAEVTLSVKAD", "readout": "Fold change to WT", "result-value": "4.9 fold"}

Which Fold change to WT is reported for this binder? variant CD80 IgV-Fc Q33L/E35D/M47I (Fc fusion, not shown: a dimerising Fc or GST) VIHVTKEVKEVATLSCGHNVSVEELAQTRIYWLKDKKMVLTMMSGDINIWPEYKNRTIFDITNNLSIVILALRPSDEGTYECVVLKYEKDAFKREHLAEVTLSVKAD
4.7 fold

Which Fold change to WT is reported for this binder? variant CD80 IgV-Fc Q33L/E35D/M47V/L85Q (Fc fusion, not shown: a dimerising Fc or GST) VIHVTKEVKEVATLSCGHNVSVEELAQTRIYWLKDKKMVLTMMSGDVNIWPEYKNRTIFDITNNLSIVILALRPSDEGTYECVVQKYEKDAFKREHLAEVTLSVKAD
5.97 fold

Which Fold change to WT is reported for this binder? variant CD80 IgV-Fc Q33L/E35D/M47I/T62N/L85Q (Fc fusion, not shown: a dimerising Fc or GST) VIHVTKEVKEVATLSCGHNVSVEELAQTRIYWLKDKKMVLTMMSGDINIWPEYKNRTIFDINNNLSIVILALRPSDEGTYECVVQKYEKDAFKREHLAEVTLSVKAD
9.14 fold

Which Fold change to WT is reported for this binder? variant CD80 IgV-Fc H18Y/A26E/Q33L/E35D/M47L/L85Q (Fc fusion, not shown: a dimerising Fc or GST) VIHVTKEVKEVATLSCGYNVSVEELEQTRIYWLKDKKMVLTMMSGDLNIWPEYKNRTIFDITNNLSIVILALRPSDEGTYECVVQKYEKDAFKREHLAEVTLSVKAD
9.64 fold

Which Fold change to WT is reported for this binder? variant CD80 IgV-Fc A26E/Q33L/E35D/M47L (Fc fusion, not shown: a dimerising Fc or GST) VIHVTKEVKEVATLSCGHNVSVEELEQTRIYWLKDKKMVLTMMSGDLNIWPEYKNRTIFDITNNLSIVILALRPSDEGTYECVVLKYEKDAFKREHLAEVTLSVKAD
7.67 fold

Where do these numbers come from? They come from patent US20210130436A1.
